- test.details: In vivo GBM rat model: plasma chemistry
- measurement.context: GBM rats, 30 mg/kg oral, 5 days, plasma at necropsy
- Procedure: The parameters that were analysed can be seen in Table 11.
Measured GLU, listed per entry for reference.
Answer format: numeric, mg/dL implied, no suffix.

These recorded examples may help you get a feel for the data.
CC(C)CCOc1ccc2c(c1)CCC(=O)N2 ... 317
C=CCOC(=O)COc1ccc2c(c1)CCC(=O)N2 ... 295
Cn1nnc2c(C(N)=O)ncn2c1=O [TMZ, Temozolomide, reference compound] ... 311
COc1cc(NC(=O)COc2ccc3c(c2)CCC(=O)N3)cc(OC)c1 ... 299

Req: Output measured GLU for this item: O=C1CCc2cc(OS(=O)(=O)c3cccc4ccccc34)ccc2N1
Resp: 316

Req: Entry C=Cc1ccc(COc2ccc3c(c2)CCC(=O)N3)cc1 needs its GLU filled in; supply it.
Resp: 293

Req: Complete the entry with GLU for O=C(COc1ccc2c(c1)CCC(=O)N2)N/N=C/c1cnc(-c2ccc(Cl)cc2)nc1
Resp: 295
